meta.source: the supplement of paper PMC12350171

# Test system: P. vulgatus RND KO;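 also: active when median AUC fell below 0.1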
# method: growth AUC normalised to DMSO control (median) (fraction of control); higher = less growth inhibition, active = hit call of the paper
# settings: 20 µM
Structures can show the parent of a compound that is named as a salt.

molecule	testedSystem	growth AUC normalised to DMSO control
COC[C@@H](NC(C)=O)C(=O)NCc1ccccc1 [Lacosamide]	P. vulgatus RND KO	0.998
C[N+]1(C)CCCC(OC(=O)C(O)(c2ccccc2)c2ccccc2)C1 (centres undefined) [Mepenzolate bromide]	P. vulgatus RND KO	1.02
CN1CCC2(C)c3cc(O)ccc3N(C)C12 (single isomer, unassigned; (-)) [(-) Eseroline fumarate salt]	P. vulgatus RND KO	0.979
O=P1(N(CCCl)CCCl)NCCCO1 (centres undefined) [Cyclophosphamide]	P. vulgatus RND KO	0.998
